assay: activity coefficient (dimensionless); of the first substance listed, at infinite dilution; xn = mol fraction of the nth substance listed; settings: 328.15 K; 101.33 kPa; Liquid; Chromatography; x1 = 0
recorded.metric: activity coefficient
Hey, just send me the number, nothing else.

Reference set (5 entries):
1) O [water] + CC[N+](C)(CC)CCOC.O=S(=O)([N-]S(=O)(=O)C(F)(F)F)C(F)(F)F	1.73
2) CCC(C)(C)C [2,2-dimethylbutane] + CC[N+](C)(CC)CCOC.O=S(=O)([N-]S(=O)(=O)C(F)(F)F)C(F)(F)F	14
3) C1CCCCC1 [cyclohexane] + CC[N+](C)(CC)CCOC.O=S(=O)([N-]S(=O)(=O)C(F)(F)F)C(F)(F)F	10
4) CCCCCCCC [octane] + CC[N+](C)(CC)CCOC.O=S(=O)([N-]S(=O)(=O)C(F)(F)F)C(F)(F)F	34.8
5) C=CCCCCCC [oct-1-ene] + CC[N+](C)(CC)CCOC.O=S(=O)([N-]S(=O)(=O)C(F)(F)F)C(F)(F)F	18.3

Recorded activity coefficient for CCCCCC [hexane] + CC[N+](C)(CC)CCOC.O=S(=O)([N-]S(=O)(=O)C(F)(F)F)C(F)(F)F , please?
16.9

Then what about the compound CCCO [propan-1-ol] + CC[N+](C)(CC)CCOC.O=S(=O)([N-]S(=O)(=O)C(F)(F)F)C(F)(F)F ?
2.04

* * *

assay: activity coefficient (dimensionless); of the first substance listed, at infinite dilution; xn = mol fraction of the nth substance listed; settings: 358.15 K; 101.33 kPa; Liquid; Chromatography; x1 = 0
recorded.metric: activity coefficient
Respond numerically, and do not add a unit to the figure.

1) CC(C)=O [acetone] + CC[N+](C)(CC)CCOC.O=S(=O)([N-]S(=O)(=O)C(F)(F)F)C(F)(F)F	0.518
2) CCCCCCCCCC [decane] + CC[N+](C)(CC)CCOC.O=S(=O)([N-]S(=O)(=O)C(F)(F)F)C(F)(F)F	52.6
3) C=CCCCCC [1-heptene] + CC[N+](C)(CC)CCOC.O=S(=O)([N-]S(=O)(=O)C(F)(F)F)C(F)(F)F	10.9
4) C1COCCO1 [1,4-dioxane] + CC[N+](C)(CC)CCOC.O=S(=O)([N-]S(=O)(=O)C(F)(F)F)C(F)(F)F	0.734

For the molecule shown here, C1=CCCCC1 [cyclohexene] + CC[N+](C)(CC)CCOC.O=S(=O)([N-]S(=O)(=O)C(F)(F)F)C(F)(F)F , give the reported activity coefficient.
4.93

Repeat with CCCCC(C)=O [2-hexanone] + CC[N+](C)(CC)CCOC.O=S(=O)([N-]S(=O)(=O)C(F)(F)F)C(F)(F)F
1.19

How about CC1CCCCC1 [methylcyclohexane] + CC[N+](C)(CC)CCOC.O=S(=O)([N-]S(=O)(=O)C(F)(F)F)C(F)(F)F ?
11.2

* * *

assay: activity coefficient (dimensionless); of the first substance listed, at infinite dilution; xn = mol fraction of the nth substance listed; settings: 338.15 K; 101.33 kPa; Liquid; Chromatography; x1 = 0
recorded.metric: activity coefficient
Lab note: record just the number, no unit beside it.

1) C#CCCCCCC [1-octyne] + CC[N+](C)(CC)CCOC.O=S(=O)([N-]S(=O)(=O)C(F)(F)F)C(F)(F)F	6.21
2) CCCO [propan-1-ol] + CC[N+](C)(CC)CCOC.O=S(=O)([N-]S(=O)(=O)C(F)(F)F)C(F)(F)F	1.87
3) c1ccsc1 [thiophene] + CC[N+](C)(CC)CCOC.O=S(=O)([N-]S(=O)(=O)C(F)(F)F)C(F)(F)F	0.925
4) CCOCC [diethyl ether] + CC[N+](C)(CC)CCOC.O=S(=O)([N-]S(=O)(=O)C(F)(F)F)C(F)(F)F	2.6

Fill in: activity coefficient of CO [methanol] + CC[N+](C)(CC)CCOC.O=S(=O)([N-]S(=O)(=O)C(F)(F)F)C(F)(F)F is ___
1.15

What would you report for Cc1ccccc1 [toluene] + CC[N+](C)(CC)CCOC.O=S(=O)([N-]S(=O)(=O)C(F)(F)F)C(F)(F)F ?
1.5

Field entry: Cc1ccc(C)cc1 [1,4-dimethylbenzene] + CC[N+](C)(CC)CCOC.O=S(=O)([N-]S(=O)(=O)C(F)(F)F)C(F)(F)F
2.15

Same again, this time with CCCCC(C)=O [2-hexanone] + CC[N+](C)(CC)CCOC.O=S(=O)([N-]S(=O)(=O)C(F)(F)F)C(F)(F)F
1.16

Repeat for the following compound: CCC[N+](=O)[O-] [1-nitropropane] + CC[N+](C)(CC)CCOC.O=S(=O)([N-]S(=O)(=O)C(F)(F)F)C(F)(F)F
0.775

Now consider CC(C)O [propan-2-ol] + CC[N+](C)(CC)CCOC.O=S(=O)([N-]S(=O)(=O)C(F)(F)F)C(F)(F)F .
1.7

* * *

experiment: activity coefficient (dimensionless); of the first substance listed, at infinite dilution; xn = mol fraction of the nth substance listed; conditions: 358.15 K; 101.33 kPa; Liquid; Chromatography; x1 = 0
Class key for activity coefficient values: 1 (below 2), 2 (2 to below 6), 3 (6 or more)

Below, 8 compounds whose answers are already recorded.
1) CCCCCCCC [octane] + CC[N+](C)(CC)CCOC.O=S(=O)([N-]S(=O)(=O)C(F)(F)F)C(F)(F)F	3
2) Cc1ccccc1 [toluene] + CC[N+](C)(CC)CCOC.O=S(=O)([N-]S(=O)(=O)C(F)(F)F)C(F)(F)F	1
3) CCCC(=O)CC [3-hexanone] + CC[N+](C)(CC)CCOC.O=S(=O)([N-]S(=O)(=O)C(F)(F)F)C(F)(F)F	1
4) CCc1ccccc1 [ethylbenzene] + CC[N+](C)(CC)CCOC.O=S(=O)([N-]S(=O)(=O)C(F)(F)F)C(F)(F)F	2
5) C=CCCCC [hex-1-ene] + CC[N+](C)(CC)CCOC.O=S(=O)([N-]S(=O)(=O)C(F)(F)F)C(F)(F)F	3
6) C=CCCCCCC [oct-1-ene] + CC[N+](C)(CC)CCOC.O=S(=O)([N-]S(=O)(=O)C(F)(F)F)C(F)(F)F	3
7) CCOCC [diethyl ether] + CC[N+](C)(CC)CCOC.O=S(=O)([N-]S(=O)(=O)C(F)(F)F)C(F)(F)F	2
8) CCCCCCCCC [nonane] + CC[N+](C)(CC)CCOC.O=S(=O)([N-]S(=O)(=O)C(F)(F)F)C(F)(F)F	3

Band of Cc1cccc(C)c1 [1,3-dimethylbenzene] + CC[N+](C)(CC)CCOC.O=S(=O)([N-]S(=O)(=O)C(F)(F)F)C(F)(F)F ?
2

Consider next the compound CCCCCC [hexane] + CC[N+](C)(CC)CCOC.O=S(=O)([N-]S(=O)(=O)C(F)(F)F)C(F)(F)F in the same way.
3

Quick one: CCC(C)(C)OC [2-methoxy-2-methylbutane] + CC[N+](C)(CC)CCOC.O=S(=O)([N-]S(=O)(=O)C(F)(F)F)C(F)(F)F
2

Another compound: c1ccncc1 [pyridine] + CC[N+](C)(CC)CCOC.O=S(=O)([N-]S(=O)(=O)C(F)(F)F)C(F)(F)F
1

Same for C1CCCC1 [cyclopentane] + CC[N+](C)(CC)CCOC.O=S(=O)([N-]S(=O)(=O)C(F)(F)F)C(F)(F)F
2

* * *

test: activity coefficient (dimensionless); of the first substance listed, at infinite dilution; xn = mol fraction of the nth substance listed; settings: 348.15 K; 101.33 kPa; Liquid; Chromatography; x1 = 0
recorded.metric: activity coefficient
Reply briefly: the number, and no unit.

Need activity coefficient, item CCCCCCCCC [nonane] + CC[N+](C)(CC)CCOC.O=S(=O)([N-]S(=O)(=O)C(F)(F)F)C(F)(F)F
41

Again, but for c1ccccc1 [benzene] + CC[N+](C)(CC)CCOC.O=S(=O)([N-]S(=O)(=O)C(F)(F)F)C(F)(F)F
1.07

Can you check CCCCC(C)=O [2-hexanone] + CC[N+](C)(CC)CCOC.O=S(=O)([N-]S(=O)(=O)C(F)(F)F)C(F)(F)F next?
1.18

Entry CCCCCCCCCC [decane] + CC[N+](C)(CC)CCOC.O=S(=O)([N-]S(=O)(=O)C(F)(F)F)C(F)(F)F please
58.1

Also C#CCCCCC [1-heptyne] + CC[N+](C)(CC)CCOC.O=S(=O)([N-]S(=O)(=O)C(F)(F)F)C(F)(F)F ?
4.35

Continue with CCOCC [diethyl ether] + CC[N+](C)(CC)CCOC.O=S(=O)([N-]S(=O)(=O)C(F)(F)F)C(F)(F)F
2.59

// next record CCC(C)CC [3-methylpentane] + CC[N+](C)(CC)CCOC.O=S(=O)([N-]S(=O)(=O)C(F)(F)F)C(F)(F)F
13.1

What would you report for CCC(C)(C)OC [2-methoxy-2-methylbutane] + CC[N+](C)(CC)CCOC.O=S(=O)([N-]S(=O)(=O)C(F)(F)F)C(F)(F)F ?
3.8

How about this compound: CCCO [propan-1-ol] + CC[N+](C)(CC)CCOC.O=S(=O)([N-]S(=O)(=O)C(F)(F)F)C(F)(F)F
1.72

Next compound up: CC(C)CC(C)(C)C [2,2,4-trimethylpentane] + CC[N+](C)(CC)CCOC.O=S(=O)([N-]S(=O)(=O)C(F)(F)F)C(F)(F)F
21
